Parameter: GI50. Scope: all listed entries.
- Test system: 60 different human tumor cell lines
- experimental_protocol: cells
- assay_conditions: DU-145

Record excerpt, results attached:
Challenge: Bench note: what GI50 did `C[C@]12CC[C@H]3[C@@H](CC=C4c5sc(Nc6ccccc6)nc5CC[C@@]43C)[C@@H]1CC[C@@H]2O` show?
Response given: 1.7 µM

Challenge: Continue with `C[C@]12CCc3sc(NCCc4ccccc4)nc3C1=CC[C@@H]1[C@@H]2CC[C@]2(C)C(=O)CC[C@@H]12`
Response given: 3.64 µM

Challenge: One more compound: `C[C@]12CCc3sc(Nc4cccc(O)c4)nc3C1=CC[C@@H]1[C@@H]2CC[C@]2(C)C(=O)CC[C@@H]12`
Response given: 4.34 µM

---
Challenge: What does the record list as GI50 for `C[C@]12CCc3sc(Nc4ccc(F)cc4F)nc3C1=CC[C@@H]1[C@@H]2CC[C@]2(C)C(=O)CC[C@@H]12` ?
Response given: 1.98 µM

Challenge: Next record, please: `C[C@]12CC[C@H]3[C@@H](CC=C4c5sc(-c6ccc(O)cc6)nc5CC[C@@]43C)[C@@H]1CC[C@@H]2O`
Response given: 9.54 µM

* * *

- Tested on: 60 different human tumor cell lines
- experimental_protocol: cells
- assay_conditions: SF-268
assay_endpoint: GI50 (µM)
Provide the reading as a plain figure in µM.

Challenge: Report GI50 for C[C@]12CCc3sc(Nc4ccc(OC(F)(F)F)cc4)nc3C1=CC[C@@H]1[C@@H]2CC[C@]2(C)C(=O)CC[C@@H]12 [IIa.19] please.
Response given: 3.01

New cases:
Challenge: What does the record list as GI50 for C[C@]12CCc3sc(NCCc4ccccc4)nc3C1=CC[C@@H]1[C@@H]2CC[C@]2(C)C(=O)CC[C@@H]12 [IIa.2] ?
Response given: 4.62

Challenge: Same lookup for C[C@]12CC[C@H]3[C@@H](CC=C4c5sc(-c6ccc(O)cc6)nc5CC[C@@]43C)[C@@H]1CC[C@@H]2O [III.5] , please.
Response given: 5.32

Challenge: Try the compound C[C@]12CCc3sc(Nc4cccc(O)c4)nc3C1=CC[C@@H]1[C@@H]2CC[C@]2(C)C(=O)CC[C@@H]12 [IIa.17]
Response given: 5.95

Challenge: Similarly, C[C@]12CC[C@H]3[C@@H](CC=C4c5sc(Nc6ccccc6)nc5CC[C@@]43C)[C@@H]1CC[C@@H]2O [IIIa.10] ?
Response given: 1.66

* * *

# CC50 listing for each entry below
- Test system: 60 different human tumor cell lines
- assay_conditions: read-out: LC50; MOLT-4 (Leukemia), five dose

Challenge: # lookup: CC50 of `C[C@]12CCc3nc(Nc4ccc(O)cc4)sc3C1=CC[C@@H]1[C@@H]2CC[C@]2(C)C(=O)CC[C@@H]12`
Response given: > 100 µM

Then this compound:
Challenge: Value lookup for CC50; key = `C[C@]12CCc3nc(N)sc3C1=CC[C@@H]1[C@@H]2CC[C@]2(C)C(=NNC(N)=O)CC[C@@H]12`
Response given: 93.3 µM

* * *

- System: 60 different human tumor cell lines
- experimental_protocol: NCI Development Therapeutics Program 60 cell line screen, one dose
- Assay type: cell-based
- assay_conditions: Ovarian Cancer, OVCAR-5
# Lookup of reported Growth Percent keyed by entry
Write the value in % as a bare number.

// below: answered compounds
Challenge: # input compound: `C[C@]12CCc3sc(Nc4cccc(O)c4)nc3C1=CC[C@@H]1[C@@H]2CC[C@]2(C)C(=O)CC[C@@H]12` ; wanted: its Growth Percent
Response given: 109.51

Challenge: One more compound: `C[C@]12CC[C@H]3[C@@H](CC=C4c5sc(-c6ccc(O)cc6)nc5CC[C@@]43C)[C@@H]1CC[C@@H]2O`
Response given: 106.38

Challenge: Same read-out for `C[C@]12CCc3sc(Nc4ccc(F)cc4F)nc3C1=CC[C@@H]1[C@@H]2CC[C@]2(C)C(=O)CC[C@@H]12` ?
Response given: 91.77

Challenge: Now give it for `C[C@]12CCc3nc(Nc4ccc(O)cc4)sc3C1=CC[C@@H]1[C@@H]2CC[C@]2(C)C(=O)CC[C@@H]12` too.
Response given: 116.69

***
Challenge: Which value of Growth Percent has been reported for `C[C@]12CCc3nc(N)sc3C1=CC[C@@H]1[C@@H]2CC[C@]2(C)C(=NNC(N)=O)CC[C@@H]12` in the records?
Response given: 72.93

Challenge: Ok, now `C[C@]12CC[C@H]3[C@@H](CC=C4c5sc(Nc6ccccc6)nc5CC[C@@]43C)[C@@H]1CC[C@@H]2O`
Response given: 92.21

Challenge: Same question, `C[C@]12CCc3sc(NCCc4ccccc4)nc3C1=CC[C@@H]1[C@@H]2CC[C@]2(C)C(=O)CC[C@@H]12` this time
Response given: 100.34

Challenge: Now the compound `C[C@]12CCc3sc(Nc4ccc(OC(F)(F)F)cc4)nc3C1=CC[C@@H]1[C@@H]2CC[C@]2(C)C(=O)CC[C@@H]12`
Response given: 91.93

Challenge: Follow-up entry: `CN(c1ccccc1)c1nc2c(s1)CC[C@@]1(C)C2=CC[C@@H]2[C@@H]1CC[C@]1(C)C(=O)CC[C@@H]21`
Response given: 98.72

* * *

- Tested on: 60 different human tumor cell lines
- assay_conditions: MCF7 (Breast Cancer), five dose
Parameter: TGI. Scope: all listed entries.

Some compounds with recorded TGI:
Challenge: Item C[C@]12CCc3nc(Nc4ccc(O)cc4)sc3C1=CC[C@@H]1[C@@H]2CC[C@]2(C)C(=O)CC[C@@H]12 [IIa.35] has what recorded TGI?
Response given: 4.26E−6

Challenge: Next entry: C[C@]12CC[C@H]3[C@@H](CC=C4c5sc(-c6ccc(O)cc6)nc5CC[C@@]43C)[C@@H]1CC[C@@H]2O [III.5]
Response given: 2.15E−5

Challenge: // same read-out, input: C[C@]12CCc3sc(Nc4cccc(O)c4)nc3C1=CC[C@@H]1[C@@H]2CC[C@]2(C)C(=O)CC[C@@H]12 [IIa.17]
Response given: 3.28E−5

Next:
Challenge: # get_value(readout='TGI', item= C[C@]12CCc3sc(NCCc4ccccc4)nc3C1=CC[C@@H]1[C@@H]2CC[C@]2(C)C(=O)CC[C@@H]12 [IIa.2] )
Response given: >1.00E−4

Challenge: Note, next up: C[C@]12CCc3nc(N)sc3C1=CC[C@@H]1[C@@H]2CC[C@]2(C)C(=NNC(N)=O)CC[C@@H]12 [IVb.1]
Response given: 3.14E−6

Challenge: // same read-out, input: C[C@]12CC[C@H]3[C@@H](CC=C4c5sc(Nc6ccccc6)nc5CC[C@@]43C)[C@@H]1CC[C@@H]2O [IIIa.10]
Response given: 4.73E−6

* * *

- Tested on: 60 different human tumor cell lines
- experimental_protocol: cells
- assay_conditions: HCT-116, read-out: LC50
assay_endpoint: CC50 (µM)
Note: unit µM is implicit; provide only the numeric part.

Challenge: Which CC50 value is on record for C[C@]12CC[C@H]3[C@@H](CC=C4c5sc(Nc6ccccc6)nc5CC[C@@]43C)[C@@H]1CC[C@@H]2O [IIIa.10] ?
Response given: 6.01

Attention now turns to another entry.
Challenge: Need CC50 of C[C@]12CCc3sc(Nc4cccc(O)c4)nc3C1=CC[C@@H]1[C@@H]2CC[C@]2(C)C(=O)CC[C@@H]12 [IIa.17] , thanks.
Response given: 9.09

* * *

- Test system: 60 different human tumor cell lines
- assay_conditions: read-out: LC50; BT-549 (Breast Cancer), five dose
assay_endpoint: CC50 (µM)
Kindly provide the numeric value in µM only, without the unit symbol.

Challenge: // query CC50 value for entry `C[C@]12CCc3nc(N)sc3C1=CC[C@@H]1[C@@H]2CC[C@]2(C)C(=NNC(N)=O)CC[C@@H]12`
Response given: 88.5

* * *

- System: 60 different human tumor cell lines
- assay_conditions: read-out: LC50; OVCAR-3 (Ovarian Cancer), five dose
Recorded CC50 values for a group of molecules are listed next.
Lab book: enter the figure in µM, no units written.

Challenge: // query CC50 value for entry `C[C@]12CCc3nc(N)sc3C1=CC[C@@H]1[C@@H]2CC[C@]2(C)C(=NNC(N)=O)CC[C@@H]12`
Response given: 6.34

Moving on to another molecule below.
Challenge: Look up CC50 for this molecule: `C[C@]12CCc3nc(Nc4ccc(O)cc4)sc3C1=CC[C@@H]1[C@@H]2CC[C@]2(C)C(=O)CC[C@@H]12`
Response given: 6.7

* * *

Quick list: TGI per entry.
- System: 60 different human tumor cell lines
- assay_conditions: HT29 (Colon Cancer), five dose

Challenge: Give 60 different human tumor cell lines TGI for `C[C@]12CCc3nc(Nc4ccc(O)cc4)sc3C1=CC[C@@H]1[C@@H]2CC[C@]2(C)C(=O)CC[C@@H]12`
Response given: 5.59E−6

Challenge: Same lookup for `C[C@]12CCc3sc(Nc4ccc(OC(F)(F)F)cc4)nc3C1=CC[C@@H]1[C@@H]2CC[C@]2(C)C(=O)CC[C@@H]12` , please.
Response given: 1.09E−5

Challenge: Also `C[C@]12CCc3nc(N)sc3C1=CC[C@@H]1[C@@H]2CC[C@]2(C)C(=NNC(N)=O)CC[C@@H]12` , if possible.
Response given: 3.73E−6

Challenge: Next compound: `C[C@]12CC[C@H]3[C@@H](CC=C4c5sc(Nc6ccccc6)nc5CC[C@@]43C)[C@@H]1CC[C@@H]2O`
Response given: 4.45E−6
